All values here come from ChEMBL document CHEMBL1152897.

Target: Progesterone receptor (Homo sapiens, UniProt P06401)
Sequence (P06401 whole entry): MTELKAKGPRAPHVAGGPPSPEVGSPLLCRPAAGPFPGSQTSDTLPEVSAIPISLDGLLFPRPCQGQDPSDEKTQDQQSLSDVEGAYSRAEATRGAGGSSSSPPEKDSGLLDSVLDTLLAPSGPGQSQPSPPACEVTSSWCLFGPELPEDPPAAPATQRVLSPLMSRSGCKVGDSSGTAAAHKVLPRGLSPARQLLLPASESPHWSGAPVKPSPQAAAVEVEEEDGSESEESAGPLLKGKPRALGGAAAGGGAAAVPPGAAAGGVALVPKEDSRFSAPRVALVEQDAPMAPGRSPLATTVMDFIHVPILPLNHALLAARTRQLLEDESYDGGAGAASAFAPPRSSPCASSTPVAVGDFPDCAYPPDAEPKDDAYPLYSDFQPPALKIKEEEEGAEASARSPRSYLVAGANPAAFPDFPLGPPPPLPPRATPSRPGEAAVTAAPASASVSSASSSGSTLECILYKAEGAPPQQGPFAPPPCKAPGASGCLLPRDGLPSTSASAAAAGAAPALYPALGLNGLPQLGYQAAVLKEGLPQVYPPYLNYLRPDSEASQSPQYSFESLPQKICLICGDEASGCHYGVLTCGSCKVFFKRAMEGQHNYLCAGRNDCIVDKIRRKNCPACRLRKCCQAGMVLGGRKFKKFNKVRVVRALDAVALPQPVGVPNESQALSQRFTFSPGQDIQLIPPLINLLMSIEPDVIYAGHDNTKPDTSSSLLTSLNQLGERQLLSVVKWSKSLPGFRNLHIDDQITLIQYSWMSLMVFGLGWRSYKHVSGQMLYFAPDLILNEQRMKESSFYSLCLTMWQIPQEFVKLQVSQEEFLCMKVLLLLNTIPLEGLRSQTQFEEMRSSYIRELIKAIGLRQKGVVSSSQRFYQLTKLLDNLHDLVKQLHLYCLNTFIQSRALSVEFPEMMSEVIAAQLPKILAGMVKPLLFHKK
Test: Antagonist activity at progesterone receptor in human T47D cells assessed as inhibition of progesterone-induced alkaline phosphatase activity
pIC50: −log10 of the molar value.
Classify by measured pIC50: fulfilled if it is equal to or exceeds 7, not fulfilled if it is smaller.

- mol: "CSc1ccc([C@H]2OC[C@@]3(C)[C@@H](CC[C@@]3(O)C(F)(F)C(F)(F)F)[C@@H]3CCC4=CC(=O)CCC4=C32)cc1"
  class: "fulfilled"
- mol: "CN(C)c1ccc([C@H]2OC[C@@]3(C)[C@@H](CC[C@@]3(O)C#Cc3ccccc3)[C@@H]3CCC4=CC(=O)CCC4=C32)cc1"
  class: "fulfilled"
- mol: "C=C(C)[C@]1(O)CC[C@H]2[C@@H]3CCC4=CC(=O)CCC4=C3[C@@H](c3ccc(S(C)(=O)=O)cc3)OC[C@@]21C"
  class: "not fulfilled"
- mol: "CN(C)c1ccc([C@H]2OC[C@]3(C)[C@@H](O)CC[C@H]3[C@@H]3CCC4=CC(=O)CCC4=C32)cc1"
  class: "not fulfilled"
- mol: "C=C(C)[C@]1(O)CC[C@H]2[C@@H]3CCC4=CC(=O)CCC4=C3[C@@H](c3ccc(N(C)C)cc3)OC[C@@]21C"
  class: "fulfilled"
- mol: "C=C1CCO[C@]12CC[C@H]1[C@@H]3CCC4=CC(=O)CCC4=C3[C@@H](c3ccc(OC)cc3)OC[C@@]12C"
  class: "fulfilled"
